A short record of MIC observed with Staphylococcus pyogenes N.Y.5 follows.
assay metric: MIC

- CCC1OC(=O)CC(O)C(C)C(OC2OC(C)CC(N(C)C)C2O)C(CC=O)CC(C)C(OC)C=CC(C)=CC1COC1OC(C)C(O)C(OC)C1OC (stereo not drawn) [Compound 6, 9-dihydro-9-O-methyl-4'-deoxydesmycosin]: ≤ 0.05 µg/mL
- CCC1OC(=O)CC(O)C(C)C(OC2OC(C)C(O)C(N(C)C)C2O)C(CC=O)CC(C)C(=O)C=CC(C)=CC1COC1OC(C)C(O)C(OC)C1OC (stereo not drawn) [Desmycosin, 4'-demycarosyltylosin]: ≤ 0.05 µg/mL
- CCCOC1C=CC(C)=CC(COC2OC(C)C(O)C(OC)C2OC)C(CC)OC(=O)CC(O)C(C)C(OC2OC(C)C(O)C(N(C)C)C2O)C(CC=O)CC1C (stereo not drawn) [Compound 3, 9-dihydro-9-O-propyldesmycosin]: ≤ 0.05 µg/mL
